# target_entity: PDE4A1 (Mus musculus)
# Construct: targets used in the assays are full-length proteins (as opposed to simply the catalytic domain); expressed in transfected cells; host or cells: Schizosaccharomyces pombe, PDE gene integrated in place of cgs2
# protocol: 5FOA growth assay (high throughput screen, ED50) in fission yeast strain expressing PDE4A1
# Type: cell-based
# condition: high throughput 5FOA growth screen; greater than 8.53 = statistically-significant inhibitor
Composite Z score, PDE4A1 for assorted compounds
measured_property: Composite Z score, PDE4A1

Cc1nc(N2CCC(C)CC2)c2c(C)c(C(=O)N3CCOCC3)sc2n1
2.2036
CCOC(=O)c1sc2nc(Cc3ccccc3)nc(NCCC3CCCCC3)c2c1C
3.8961
Cc1c(C(=O)NCc2ccco2)sc2ncnc(N3CCN(c4ccccc4F)CC3)c12
3.616
Cc1nc(N2CCCN(C)CC2)c2c3c(sc2n1)CCC3
0.327
CCC(CO)Nc1nc(C)nc2sc3c(c12)CCC3 (stereo not drawn) [Compound 1380M03]
−1.217
Cc1nc(N2CCC(C)CC2)c2c(C)c(C(=O)N3CCN(c4ccc(F)cc4)CC3)sc2n1
12.024
c1csc(CCNc2ncnc3sc4c(c23)CCC4)c1
−1.628
CC(C)CNc1ncnc2sc3c(c12)CCCC3
1.6797
CCOC(=O)CNC(=O)c1sc2ncnc(N3CCN(c4ccccc4F)CC3)c2c1C
2.4477
CCC(CO)Nc1nc(C)nc2sc3c(c12)CCC3 (stereo not drawn) [Compound 1422J17]
0.1866
c1ccc(CNc2ncnc3sc4c(c23)CCCC4)cc1
1.1575
O=C(c1ccco1)N1CCN(c2ncnc3sc4c(c23)CCCC4)CC1
18.511
CC(C)C(Nc1ncnc2sc3c(c12)CCC3)C(=O)O (stereo not drawn)
1.3339
CCN(CC)CCCNC(=O)c1sc2ncnc(N3CCN(c4ccc(OC)cc4)CC3)c2c1C
2.6937
CC(C)N(C)c1ncnc2sc3c(c12)CCC3
12.819
CC1CC(=O)N(c2ncnc3sc4c(c23)CCCC4)N1 (stereo not drawn)
0.2389
CCN(CC)c1nc(C)nc2sc(C(=O)Nc3cc(Cl)ccc3OC)c(C)c12
8.6742
CCOC(=O)c1sc2nc(CC(=O)OC)nc(NCC(=O)OC)c2c1C
−0.126

###

# target_entity: PDE7A (Homo sapiens)
# Sequence (Q13946 whole entry): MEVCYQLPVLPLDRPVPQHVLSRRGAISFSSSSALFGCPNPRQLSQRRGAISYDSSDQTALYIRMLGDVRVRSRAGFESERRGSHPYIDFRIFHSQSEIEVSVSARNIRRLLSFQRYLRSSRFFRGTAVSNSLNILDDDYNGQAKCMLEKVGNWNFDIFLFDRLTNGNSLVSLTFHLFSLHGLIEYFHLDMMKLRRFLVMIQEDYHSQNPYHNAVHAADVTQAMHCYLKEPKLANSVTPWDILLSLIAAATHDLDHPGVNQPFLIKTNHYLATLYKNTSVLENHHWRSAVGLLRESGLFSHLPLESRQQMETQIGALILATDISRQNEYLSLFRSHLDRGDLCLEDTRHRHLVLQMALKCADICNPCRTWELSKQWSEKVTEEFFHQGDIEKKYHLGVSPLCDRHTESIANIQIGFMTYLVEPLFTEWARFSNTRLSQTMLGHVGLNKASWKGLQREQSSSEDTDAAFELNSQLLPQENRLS
# protocol: 5FOA growth assay in fission yeast strain expressing PDE7A
# condition: OD600 0.6; read-out: ED50 for 5FOA growth assays, PDE7A
pEC50: −log10 of the molar value.
measured_property: pEC50

Cc1sc2ncnc(Nc3ccccc3)c2c1C [BC64]
< 3.70
Cc1ccc([N+](=O)[O-])cc1S(=O)(=O)N(C)C [BRL50481, reference compound]
5.89
COc1ccc(C2CNC(=O)C2)cc1OC1CCCC1 (stereo not shown) [Rolipram, reference compound]
< 3.70
CCC1CCc2c(sc3ncnc(N4CCOCC4)c23)C1 (stereo not shown) [BC33]
< 3.70

###

# target_entity: PDE4A1 (Mus musculus, UniProt O89084)
# Construct: targets used in the assays are full-length proteins (as opposed to simply the catalytic domain); expressed in transfected cells; host or cells: Schizosaccharomyces pombe, PDE gene integrated in place of cgs2
# Sequence (O89084 1-610 isoform O89084-2): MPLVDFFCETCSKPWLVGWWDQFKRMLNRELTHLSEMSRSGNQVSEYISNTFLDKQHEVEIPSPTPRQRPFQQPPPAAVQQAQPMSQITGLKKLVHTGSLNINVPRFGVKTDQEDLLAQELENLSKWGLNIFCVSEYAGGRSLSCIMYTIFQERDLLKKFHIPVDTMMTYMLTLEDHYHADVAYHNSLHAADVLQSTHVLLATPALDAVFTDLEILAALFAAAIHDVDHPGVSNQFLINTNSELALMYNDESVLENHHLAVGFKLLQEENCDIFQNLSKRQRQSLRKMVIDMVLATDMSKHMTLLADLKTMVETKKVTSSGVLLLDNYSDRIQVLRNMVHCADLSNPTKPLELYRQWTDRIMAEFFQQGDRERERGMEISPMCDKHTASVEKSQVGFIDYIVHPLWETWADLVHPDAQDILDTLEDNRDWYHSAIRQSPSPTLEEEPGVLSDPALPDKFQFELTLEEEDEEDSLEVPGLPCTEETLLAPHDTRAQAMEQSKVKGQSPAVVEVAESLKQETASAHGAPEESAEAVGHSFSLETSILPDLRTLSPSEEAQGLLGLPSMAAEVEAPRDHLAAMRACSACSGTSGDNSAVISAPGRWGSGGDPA
# protocol: 5FOA growth assay (high throughput screen, ED50) in fission yeast strain expressing PDE4A1
# Format: cell-based
# condition: 20 uM; PDE 4A1
1 Assay (20 uM) 4A1 for assorted compounds
measured_property: 1 Assay (20 uM) 4A1

CCCCn1c2ccccc2c2nc3ccccc3nc21
80.55 ND ND ND ND
C=CCn1c2ccc(Br)cc2c2nc3ccccc3nc21
49.17 ND ND ND ND
c1ccc(CCn2c3ccccc3c3nc4ccccc4nc32)cc1
36.37 ND ND ND ND
CCCn1c2ccccc2c2nc3ccccc3nc21
72.21 ND ND ND ND
C=Cn1c2ccccc2c2nc3ccccc3nc21
29.62 ND ND ND ND
CC(C)Cn1c2ccc(Br)cc2c2nc3ccccc3nc21
13.51 ND ND ND ND
Cc1ccc2c(c1)c1nc3ccccc3nc1n2C(C)C
106.90
CC(C)n1c2ccccc2c2nc3ccccc3nc21
56.62 ND ND ND ND
COc1ccc2c(c1)[C@@]1(C)CCC[C@](C)(CO)C1CC2 (stereo partly shown)
11567
CC(C)Cn1c2ccccc2c2nc3ccccc3nc21
40.53 ND ND ND ND

###

# target_entity: PDE7A (Homo sapiens)
# protocol: 5FOA growth assay in fission yeast strain expressing PDE7A
# Type: cell-based
# Set-up: targets used in the assays are full-length proteins (as opposed to simply the catalytic domain); expressed in transfected cells; host or cells: Schizosaccharomyces pombe, PDE gene integrated in place of cgs2
# condition: high throughput 5FOA growth screen
# Procedure: PDE inhibition allows growth in 5FOA medium as measured by optical density after 48 hours incubation at 30° C. Compound BC12 and six structural analogs were tested for growth stimulation. Cells were pregrown in EMM medium [MP Biomedicals (Solon, Ohio), 3% glucose, filter-sterilized to avoid carmelization, which would introduce variability into the optical density of the medium] containing from 0 mM to 2.5 mM cAMP (or either 0.5 mM or 1.0 mM cGMP). […]
Composite Z score, PDE7A for assorted molecules
measured_property: Composite Z score, PDE7A

CNc1nc(=S)[nH]c2sc3c(c12)CCCC3
−0.995
c1nc(NC2CCCC2)c2c3c(sc2n1)CCC3
18.891
CC(C)CNc1ncnc2sc3c(c12)CCCC3
17.695
Cc1sc2ncnc(Nc3ccccc3)c2c1C
55.035
O=C(/C=C/c1ccccc1)Nc1ncnc2sc3c(c12)CCC3
0.9074
O=C(c1ccco1)N1CCN(c2ncnc3sc4c(c23)CCCC4)CC1
0.8496

###

# target_entity: PDE4A1 (Mus musculus, UniProt O89084)
# Construct: targets used in the assays are full-length proteins (as opposed to simply the catalytic domain); expressed in transfected cells; host or cells: Schizosaccharomyces pombe, PDE gene integrated in place of cgs2
# Sequence (O89084 1-610 isoform O89084-2): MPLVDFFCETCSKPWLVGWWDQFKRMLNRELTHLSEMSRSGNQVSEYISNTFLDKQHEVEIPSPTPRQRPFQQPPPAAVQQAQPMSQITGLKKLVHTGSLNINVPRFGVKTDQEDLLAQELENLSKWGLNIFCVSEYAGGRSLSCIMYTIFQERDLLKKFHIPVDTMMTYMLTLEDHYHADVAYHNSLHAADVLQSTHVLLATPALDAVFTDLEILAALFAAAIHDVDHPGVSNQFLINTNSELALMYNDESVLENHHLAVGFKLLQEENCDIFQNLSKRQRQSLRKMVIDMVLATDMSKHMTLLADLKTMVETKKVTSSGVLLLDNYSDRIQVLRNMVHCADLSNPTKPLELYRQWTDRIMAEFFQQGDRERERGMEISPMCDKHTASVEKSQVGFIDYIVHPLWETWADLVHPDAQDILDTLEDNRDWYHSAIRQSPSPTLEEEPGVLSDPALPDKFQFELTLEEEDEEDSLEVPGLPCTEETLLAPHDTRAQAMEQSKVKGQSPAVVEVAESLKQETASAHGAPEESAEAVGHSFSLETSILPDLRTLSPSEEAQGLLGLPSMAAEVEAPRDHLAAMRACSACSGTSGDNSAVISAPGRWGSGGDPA
# protocol: 5FOA growth assay (high throughput screen, ED50) in fission yeast strain expressing PDE4A1
# Assay type: cell-based
# condition: value marked (m); OD600 0.6; read-out: ED50 for 5FOA growth assays, PDE4A1 (m)
EC50 for assorted compounds
measured_property: EC50 (µM)

CCC1CCc2c(sc3ncnc(N4CCOCC4)c23)C1 (centres unmarked) [BC33]
23
Cc1sc2ncnc(Nc3ccccc3)c2c1C [BC64]
20
